These data points were gathered from patent US20260174847A1.

EXPERIMENT_SUMMARY: SPR (Biocore T100) binding affinity to sLeC
DETAILS: Example 3, Table 7, mean
Lab note - cut at 100 µM for Kd: satisfied if strictly below, not satisfied if not.

Here's what some known entries look like.
- Clone 4771: Humanized IgG1 antibody, heavy chain variable region HvCh3 (SEQ ID NO: 3), light chain LiCh3 (SEQ ID NO: 7) (antibody, V domains shown) VH: EVQLVESGGGLVQPGGSLRLSCAASGFTFSTNAMSWVRQAPGKGLEWVARLRPKSDNYATYYADSVKGRFTISRDDSKNTLYLQMNSLRAEDTAVYYCVTGTGFWGQGTTLTVSS VL: DIVMTQSPDSLAVSLGERATINCKSSQSLLNSGNQKNYLTWYQQKPGQPPKLLFYWTSTRESGVPDRFSGSGSGTDFTLTISSLQAEDVAVYYCQNDYTSPYTFGQGTKLEIK: satisfied
- Clone 4766: Humanized IgG1 antibody, heavy chain variable region HvCh2 (SEQ ID NO: 2), light chain LiCh2 (SEQ ID NO: 6) (antibody, V domains shown) VH: EVQLVESGGGLVQPGGSLRLSCAASGFTFSTNAMSWVRQAPGKGLEWVARLRPKSDNYATYYADSVKGRFTISRDNSKNTLYLQMNSLRAEDTAVYYCVTGTGFWGQGTTLTVSS VL: DIVMTQSPDSLAVSLGERVTMNCKSSQSLLNSGNQKNYLTWYQQKPGQPPKLLIYWTSTRESGVPDRFSGSGSGTDFTLTISSVQAEDVAVYYCQNDYTSPYTFGQGTKLEIK: not satisfied
- Clone 4768: Humanized IgG1 antibody, heavy chain variable region HvCh2 (SEQ ID NO: 2), light chain LiCh4 (SEQ ID NO: 8) (antibody, V domains shown) VH: EVQLVESGGGLVQPGGSLRLSCAASGFTFSTNAMSWVRQAPGKGLEWVARLRPKSDNYATYYADSVKGRFTISRDNSKNTLYLQMNSLRAEDTAVYYCVTGTGFWGQGTTLTVSS VL: DIVMTQSPDSLAVSLGERVTMNCKSSQSLLNSGNQKNYLTWYQQKPGQPPKLLFYWTSTRESGVPDRFSGSGSGTDFTLTISSVQAEDVAVYYCQNDYTSPYTFGQGTKLEIK: not satisfied

Would you kindly verify if Kd of Clone 4769: Humanized IgG1 antibody, heavy chain variable region HvCh3 (SEQ ID NO: 3), light chain LiCh1 (SEQ ID NO: 5) (antibody, V domains shown) VH: EVQLVESGGGLVQPGGSLRLSCAASGFTFSTNAMSWVRQAPGKGLEWVARLRPKSDNYATYYADSVKGRFTISRDDSKNTLYLQMNSLRAEDTAVYYCVTGTGFWGQGTTLTVSS VL: DIVMTQSPDSLAVSLGERATINCKSSQSLLNSGNQKNYLTWYQQKPGQPPKLLIYWTSTRESGVPDRFSGSGSGTDFTLTISSLQAEDVAVYYCQNDYTSPYTFGQGTKLEIK is strictly less than 100 µM?
not satisfied

Would you kindly verify if Kd of Clone 4770: Humanized IgG1 antibody, heavy chain variable region HvCh3 (SEQ ID NO: 3), light chain LiCh2 (SEQ ID NO: 6) (antibody, V domains shown) VH: EVQLVESGGGLVQPGGSLRLSCAASGFTFSTNAMSWVRQAPGKGLEWVARLRPKSDNYATYYADSVKGRFTISRDDSKNTLYLQMNSLRAEDTAVYYCVTGTGFWGQGTTLTVSS VL: DIVMTQSPDSLAVSLGERVTMNCKSSQSLLNSGNQKNYLTWYQQKPGQPPKLLIYWTSTRESGVPDRFSGSGSGTDFTLTISSVQAEDVAVYYCQNDYTSPYTFGQGTKLEIK is strictly less than 100 µM?
satisfied
